- System: noncancerous retinal pigment epithelium (RPE-1) cells
- PROCEDURE TEXT: (Photo-)cytotoxicity on 2D cell monolayers, RPE-1
- CONDITION LABEL: read-out: IC50 540 nm (40 min, 9.5 J cm-2); RPE-1, 540 nm; 1-3 as chloride salts
Provide the recorded pIC50 for the entries that follow.
Just the number, please; pIC50 means minus log10 of the concentration in mol/L.

Recorded pIC50 for COc1ccc(/C=C/c2ccnc(-c3cc(/C=C/c4ccc(OC)cc4)ccn3)c2)cc1.COc1ccc(/C=C/c2ccnc(-c3cc(/C=C/c4ccc(OC)cc4)ccn3)c2)cc1.COc1ccc(/C=C/c2ccnc(-c3cc(/C=C/c4ccc(OC)cc4)ccn3)c2)cc1.F[P-](F)(F)(F)(F)F.F[P-](F)(F)(F)(F)F.[Ru+2] [compound 3] , please? 4.35

Please give the measured pIC50 for this compound: C(=C\c1ccnc(-c2cc(/C=C/c3ccccc3)ccn2)c1)/c1ccccc1.C(=C\c1ccnc(-c2cc(/C=C/c3ccccc3)ccn2)c1)/c1ccccc1.C(=C\c1ccnc(-c2cc(/C=C/c3ccccc3)ccn2)c1)/c1ccccc1.F[P-](F)(F)(F)(F)F.F[P-](F)(F)(F)(F)F.[Ru+2] [compound 1] 4.50

Can you share its pIC50? I mean this compound: CN(C)c1ccc(/C=C/c2ccnc(-c3cc(/C=C/c4ccc(N(C)C)cc4)ccn3)c2)cc1.CN(C)c1ccc(/C=C/c2ccnc(-c3cc(/C=C/c4ccc(N(C)C)cc4)ccn3)c2)cc1.CN(C)c1ccc(/C=C/c2ccnc(-c3cc(/C=C/c4ccc(N(C)C)cc4)ccn3)c2)cc1.F[P-](F)(F)(F)(F)F.F[P-](F)(F)(F)(F)F.[Ru+2] [compound 2] 4.31

###

- Tested on: human glioblastoma astrocytoma (U373) cells
- PROCEDURE TEXT: (Photo-)cytotoxicity on 2D cell monolayers, U373;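 note: Resazurin-to-resorufin fluorescence viability readout, 8 h compound exposure then medium change, light dose 3.1 J cm^−2 at 480 nm or 9.5 J cm^−2 at 540 nm, analysed 40 h later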
- CONDITION LABEL: U373, dark vs 540 nm
EXPERIMENTAL READOUT: PI (540 nm)

Give its PI (540 nm) value. Item: CN(C)c1ccc(/C=C/c2ccnc(-c3cc(/C=C/c4ccc(N(C)C)cc4)ccn3)c2)cc1.CN(C)c1ccc(/C=C/c2ccnc(-c3cc(/C=C/c4ccc(N(C)C)cc4)ccn3)c2)cc1.F[P-](F)(F)(F)(F)F.F[P-](F)(F)(F)(F)F.[Ru+2].c1ccc(-c2ccccn2)nc1 > 5.3

Which PI (540 nm) value belongs to COc1ccc(/C=C/c2ccnc(-c3cc(/C=C/c4ccc(OC)cc4)ccn3)c2)cc1.F[P-](F)(F)(F)(F)F.F[P-](F)(F)(F)(F)F.[Ru+2].c1ccc(-c2ccccn2)nc1.c1ccc(-c2ccccn2)nc1 ? > 7.4

What measured PI (540 nm) goes with COc1ccc(/C=C/c2ccnc(-c3cc(/C=C/c4ccc(OC)cc4)ccn3)c2)cc1.COc1ccc(/C=C/c2ccnc(-c3cc(/C=C/c4ccc(OC)cc4)ccn3)c2)cc1.COc1ccc(/C=C/c2ccnc(-c3cc(/C=C/c4ccc(OC)cc4)ccn3)c2)cc1.F[P-](F)(F)(F)(F)F.F[P-](F)(F)(F)(F)F.[Ru+2] ? > 1.9

For CN(C)c1ccc(/C=C/c2ccnc(-c3cc(/C=C/c4ccc(N(C)C)cc4)ccn3)c2)cc1.CN(C)c1ccc(/C=C/c2ccnc(-c3cc(/C=C/c4ccc(N(C)C)cc4)ccn3)c2)cc1.CN(C)c1ccc(/C=C/c2ccnc(-c3cc(/C=C/c4ccc(N(C)C)cc4)ccn3)c2)cc1.F[P-](F)(F)(F)(F)F.F[P-](F)(F)(F)(F)F.[Ru+2] , what is its reported PI (540 nm)? > 1.6

What measured PI (540 nm) goes with C(=C\c1ccnc(-c2cc(/C=C/c3ccccc3)ccn2)c1)/c1ccccc1.C(=C\c1ccnc(-c2cc(/C=C/c3ccccc3)ccn2)c1)/c1ccccc1.C(=C\c1ccnc(-c2cc(/C=C/c3ccccc3)ccn2)c1)/c1ccccc1.F[P-](F)(F)(F)(F)F.F[P-](F)(F)(F)(F)F.[Ru+2] ? > 1.2

Give its PI (540 nm) value. Item: COc1ccc(/C=C/c2ccnc(-c3cc(/C=C/c4ccc(OC)cc4)ccn3)c2)cc1.COc1ccc(/C=C/c2ccnc(-c3cc(/C=C/c4ccc(OC)cc4)ccn3)c2)cc1.F[P-](F)(F)(F)(F)F.F[P-](F)(F)(F)(F)F.[Ru+2].c1ccc(-c2ccccn2)nc1 > 5.6

I am curious: what PI (540 nm) value has been reported for CN(C)c1ccc(/C=C/c2ccnc(-c3cc(/C=C/c4ccc(N(C)C)cc4)ccn3)c2)cc1.F[P-](F)(F)(F)(F)F.F[P-](F)(F)(F)(F)F.[Ru+2].c1ccc(-c2ccccn2)nc1.c1ccc(-c2ccccn2)nc1 ? > 9.3

Reported PI (540 nm) for C=CC1=C(C)c2cc3[nH]c(cc4nc(cc5[nH]c(cc1n2)c(C)c5CCC(=O)O)C(CCC(=O)O)=C4C)c(C)c3C=C [PpIX, Protoporphyrin IX, reference compound] : what is it? > 27.8

###

I'd appreciate it if you could supply τ degassed, excited state lifetime values for the items below.
- PROCEDURE TEXT: Excited state lifetime
- Assay type: physicochemical
- CONDITION LABEL: degassed acetonitrile
Give the number; ns is assumed, so skip it.

Any idea what its τ degassed, excited state lifetime is? The compound is COc1ccc(/C=C/c2ccnc(-c3cc(/C=C/c4ccc(OC)cc4)ccn3)c2)cc1.F[P-](F)(F)(F)(F)F.F[P-](F)(F)(F)(F)F.[Ru+2].c1ccc(-c2ccccn2)nc1.c1ccc(-c2ccccn2)nc1 542

Reported τ degassed, excited state lifetime for COc1ccc(/C=C/c2ccnc(-c3cc(/C=C/c4ccc(OC)cc4)ccn3)c2)cc1.COc1ccc(/C=C/c2ccnc(-c3cc(/C=C/c4ccc(OC)cc4)ccn3)c2)cc1.COc1ccc(/C=C/c2ccnc(-c3cc(/C=C/c4ccc(OC)cc4)ccn3)c2)cc1.F[P-](F)(F)(F)(F)F.F[P-](F)(F)(F)(F)F.[Ru+2] : what is it? 338

Fill blank: measured τ degassed, excited state lifetime of the compound CN(C)c1ccc(/C=C/c2ccnc(-c3cc(/C=C/c4ccc(N(C)C)cc4)ccn3)c2)cc1.CN(C)c1ccc(/C=C/c2ccnc(-c3cc(/C=C/c4ccc(N(C)C)cc4)ccn3)c2)cc1.F[P-](F)(F)(F)(F)F.F[P-](F)(F)(F)(F)F.[Ru+2].c1ccc(-c2ccccn2)nc1 is ____. 417

Item under review: C(=C\c1ccnc(-c2cc(/C=C/c3ccccc3)ccn2)c1)/c1ccccc1.C(=C\c1ccnc(-c2cc(/C=C/c3ccccc3)ccn2)c1)/c1ccccc1.C(=C\c1ccnc(-c2cc(/C=C/c3ccccc3)ccn2)c1)/c1ccccc1.F[P-](F)(F)(F)(F)F.F[P-](F)(F)(F)(F)F.[Ru+2] . Reported τ degassed, excited state lifetime? 385

###

- PROCEDURE TEXT: Two-photon absorption cross section
- Assay type: physicochemical
- CONDITION LABEL: dichloromethane
With a cut-off of 300 GM, any σ2, 2P absorption cross section strictly below it is called yes; any σ2, 2P absorption cross section meeting it or above is called no.

Hi there! Is σ2, 2P absorption cross section for COc1ccc(/C=C/c2ccnc(-c3cc(/C=C/c4ccc(OC)cc4)ccn3)c2)cc1.COc1ccc(/C=C/c2ccnc(-c3cc(/C=C/c4ccc(OC)cc4)ccn3)c2)cc1.COc1ccc(/C=C/c2ccnc(-c3cc(/C=C/c4ccc(OC)cc4)ccn3)c2)cc1.F[P-](F)(F)(F)(F)F.F[P-](F)(F)(F)(F)F.[Ru+2] below 300 GM, do you know? no

Hello, is σ2, 2P absorption cross section of the following compound strictly smaller than 300 GM? CN(C)c1ccc(/C=C/c2ccnc(-c3cc(/C=C/c4ccc(N(C)C)cc4)ccn3)c2)cc1.F[P-](F)(F)(F)(F)F.F[P-](F)(F)(F)(F)F.[Ru+2].c1ccc(-c2ccccn2)nc1.c1ccc(-c2ccccn2)nc1 no

Quick check: σ2, 2P absorption cross section of CN(C)c1ccc(/C=C/c2ccnc(-c3cc(/C=C/c4ccc(N(C)C)cc4)ccn3)c2)cc1.CN(C)c1ccc(/C=C/c2ccnc(-c3cc(/C=C/c4ccc(N(C)C)cc4)ccn3)c2)cc1.CN(C)c1ccc(/C=C/c2ccnc(-c3cc(/C=C/c4ccc(N(C)C)cc4)ccn3)c2)cc1.F[P-](F)(F)(F)(F)F.F[P-](F)(F)(F)(F)F.[Ru+2] under 300 GM? no

Please let me know if CN(C)c1ccc(/C=C/c2ccnc(-c3cc(/C=C/c4ccc(N(C)C)cc4)ccn3)c2)cc1.CN(C)c1ccc(/C=C/c2ccnc(-c3cc(/C=C/c4ccc(N(C)C)cc4)ccn3)c2)cc1.F[P-](F)(F)(F)(F)F.F[P-](F)(F)(F)(F)F.[Ru+2].c1ccc(-c2ccccn2)nc1 shows σ2, 2P absorption cross section below 300 GM. no

Report whether reported σ2, 2P absorption cross section is lower than 300 GM (strictly) for COc1ccc(/C=C/c2ccnc(-c3cc(/C=C/c4ccc(OC)cc4)ccn3)c2)cc1.COc1ccc(/C=C/c2ccnc(-c3cc(/C=C/c4ccc(OC)cc4)ccn3)c2)cc1.F[P-](F)(F)(F)(F)F.F[P-](F)(F)(F)(F)F.[Ru+2].c1ccc(-c2ccccn2)nc1 no

Hello, is σ2, 2P absorption cross section of the following compound strictly smaller than 300 GM? C(=C\c1ccnc(-c2cc(/C=C/c3ccccc3)ccn2)c1)/c1ccccc1.C(=C\c1ccnc(-c2cc(/C=C/c3ccccc3)ccn2)c1)/c1ccccc1.C(=C\c1ccnc(-c2cc(/C=C/c3ccccc3)ccn2)c1)/c1ccccc1.F[P-](F)(F)(F)(F)F.F[P-](F)(F)(F)(F)F.[Ru+2] yes

Reference for the values: paper PMC7320011
